conditionDetails: in methyl acetate, 318.15 K
assayEndpoint: solubility (mole fraction)
Lab note: record just the number, no unit beside it.

# molecule `COC(=O)c1cc(O)c(O)c(O)c1` ; its solubility (mole fraction) = 0.0509

----------
conditionDetails: in methanol, 318.15 K
assayEndpoint: solubility (mole fraction)
Lab note: record just the number, no unit beside it.

# compound `COC(=O)c1cc(O)c(O)c(O)c1` ; its solubility (mole fraction) = 0.115

----------
conditionDetails: in acetone, 303.15 K
assayEndpoint: solubility (mole fraction)
Lab note: record just the number, no unit beside it.

# compound `COC(=O)c1cc(O)c(O)c(O)c1` ; its solubility (mole fraction) = 0.106

----------
conditionDetails: in ethanol, 323.15 K
assayEndpoint: solubility (mole fraction)
Lab note: record just the number, no unit beside it.

# compound `COC(=O)c1cc(O)c(O)c(O)c1` ; its solubility (mole fraction) = 0.11

----------
conditionDetails: in isobutanol, 293.15 K
assayEndpoint: solubility (mole fraction)

# molecule `COC(=O)c1cc(O)c(O)c(O)c1` ; its solubility (mole fraction) = 0.02

----------
conditionDetails: in ethyl acetate, 303.15 K
assayEndpoint: solubility (mole fraction)
Lab note: record just the number, no unit beside it.

# compound `COC(=O)c1cc(O)c(O)c(O)c1` ; its solubility (mole fraction) = 0.0283

----------
conditionDetails: in methyl acetate, 293.15 K
assayEndpoint: solubility (mole fraction)
Lab note: record just the number, no unit beside it.

# compound `COC(=O)c1cc(O)c(O)c(O)c1` ; its solubility (mole fraction) = 0.0266

----------
conditionDetails: in n-propanol, 328.15 K
assayEndpoint: solubility (mole fraction)
Lab note: record just the number, no unit beside it.

# compound `COC(=O)c1cc(O)c(O)c(O)c1` ; its solubility (mole fraction) = 0.0864

----------
conditionDetails: in ethanol, 313.15 K
assayEndpoint: solubility (mole fraction)
Lab note: record just the number, no unit beside it.

# compound `COC(=O)c1cc(O)c(O)c(O)c1` ; its solubility (mole fraction) = 0.0955

----------
conditionDetails: in isopropanol, 328.15 K
assayEndpoint: solubility (mole fraction)
Lab note: record just the number, no unit beside it.

# molecule `COC(=O)c1cc(O)c(O)c(O)c1` ; its solubility (mole fraction) = 0.0991

----------
conditionDetails: in methyl acetate, 313.15 K
assayEndpoint: solubility (mole fraction)
Lab note: record just the number, no unit beside it.

# compound `COC(=O)c1cc(O)c(O)c(O)c1` ; its solubility (mole fraction) = 0.045

----------
conditionDetails: in isopropanol, 303.15 K
assayEndpoint: solubility (mole fraction)
Lab note: record just the number, no unit beside it.

# compound `COC(=O)c1cc(O)c(O)c(O)c1` ; its solubility (mole fraction) = 0.0625

----------
conditionDetails: in n-butanol, 293.15 K
assayEndpoint: solubility (mole fraction)
Lab note: record just the number, no unit beside it.

# compound `COC(=O)c1cc(O)c(O)c(O)c1` ; its solubility (mole fraction) = 0.0354

----------
conditionDetails: in isopropanol, 333.15 K
assayEndpoint: solubility (mole fraction)

# compound `COC(=O)c1cc(O)c(O)c(O)c1` ; its solubility (mole fraction) = 0.107

----------
conditionDetails: in isobutanol, 298.15 K
assayEndpoint: solubility (mole fraction)
Lab note: record just the number, no unit beside it.

# molecule `COC(=O)c1cc(O)c(O)c(O)c1` ; its solubility (mole fraction) = 0.0231

----------
conditionDetails: in isopropanol, 308.15 K
assayEndpoint: solubility (mole fraction)
Lab note: record just the number, no unit beside it.

# molecule `COC(=O)c1cc(O)c(O)c(O)c1` ; its solubility (mole fraction) = 0.0677

----------
conditionDetails: in ethanol, 328.15 K
assayEndpoint: solubility (mole fraction)

# compound `COC(=O)c1cc(O)c(O)c(O)c1` ; its solubility (mole fraction) = 0.119

----------
conditionDetails: in n-butanol, 318.15 K
assayEndpoint: solubility (mole fraction)
Lab note: record just the number, no unit beside it.

# compound `COC(=O)c1cc(O)c(O)c(O)c1` ; its solubility (mole fraction) = 0.0621

----------
conditionDetails: in ethanol, 333.15 K
assayEndpoint: solubility (mole fraction)
Lab note: record just the number, no unit beside it.

# molecule `COC(=O)c1cc(O)c(O)c(O)c1` ; its solubility (mole fraction) = 0.128

----------
conditionDetails: in ethanol, 303.15 K
assayEndpoint: solubility (mole fraction)
Lab note: record just the number, no unit beside it.

# compound `COC(=O)c1cc(O)c(O)c(O)c1` ; its solubility (mole fraction) = 0.0819

----------
conditionDetails: in n-propanol, 318.15 K
assayEndpoint: solubility (mole fraction)
Lab note: record just the number, no unit beside it.

# compound `COC(=O)c1cc(O)c(O)c(O)c1` ; its solubility (mole fraction) = 0.0713

----------
conditionDetails: in n-butanol, 323.15 K
assayEndpoint: solubility (mole fraction)
Lab note: record just the number, no unit beside it.

# compound `COC(=O)c1cc(O)c(O)c(O)c1` ; its solubility (mole fraction) = 0.069

----------
conditionDetails: in methanol, 313.15 K
assayEndpoint: solubility (mole fraction)
Lab note: record just the number, no unit beside it.

# molecule `COC(=O)c1cc(O)c(O)c(O)c1` ; its solubility (mole fraction) = 0.107

----------
conditionDetails: in isobutanol, 313.15 K
assayEndpoint: solubility (mole fraction)
Lab note: record just the number, no unit beside it.

# compound `COC(=O)c1cc(O)c(O)c(O)c1` ; its solubility (mole fraction) = 0.0351

----------
conditionDetails: in ethanol, 318.15 K
assayEndpoint: solubility (mole fraction)

# molecule `COC(=O)c1cc(O)c(O)c(O)c1` ; its solubility (mole fraction) = 0.103

----------
conditionDetails: in isobutanol, 333.15 K
assayEndpoint: solubility (mole fraction)
Lab note: record just the number, no unit beside it.

# molecule `COC(=O)c1cc(O)c(O)c(O)c1` ; its solubility (mole fraction) = 0.0603

----------
conditionDetails: in ethanol, 298.15 K
assayEndpoint: solubility (mole fraction)
Lab note: record just the number, no unit beside it.

# molecule `COC(=O)c1cc(O)c(O)c(O)c1` ; its solubility (mole fraction) = 0.0758

----------
conditionDetails: in methyl acetate, 308.15 K
assayEndpoint: solubility (mole fraction)
Lab note: record just the number, no unit beside it.

# molecule `COC(=O)c1cc(O)c(O)c(O)c1` ; its solubility (mole fraction) = 0.0396

----------
conditionDetails: in ethyl acetate, 318.15 K
assayEndpoint: solubility (mole fraction)
Lab note: record just the number, no unit beside it.

# compound `COC(=O)c1cc(O)c(O)c(O)c1` ; its solubility (mole fraction) = 0.0425

----------
conditionDetails: in n-butanol, 313.15 K
assayEndpoint: solubility (mole fraction)
Lab note: record just the number, no unit beside it.

# compound `COC(=O)c1cc(O)c(O)c(O)c1` ; its solubility (mole fraction) = 0.0557

----------
conditionDetails: in methanol, 308.15 K
assayEndpoint: solubility (mole fraction)
Lab note: record just the number, no unit beside it.

# molecule `COC(=O)c1cc(O)c(O)c(O)c1` ; its solubility (mole fraction) = 0.1

----------
conditionDetails: in methanol, 323.15 K
assayEndpoint: solubility (mole fraction)
Lab note: record just the number, no unit beside it.

# compound `COC(=O)c1cc(O)c(O)c(O)c1` ; its solubility (mole fraction) = 0.123

----------
conditionDetails: in methanol, 298.15 K
assayEndpoint: solubility (mole fraction)
Lab note: record just the number, no unit beside it.

# compound `COC(=O)c1cc(O)c(O)c(O)c1` ; its solubility (mole fraction) = 0.0864

----------
conditionDetails: in n-propanol, 293.15 K
assayEndpoint: solubility (mole fraction)
Lab note: record just the number, no unit beside it.

# compound `COC(=O)c1cc(O)c(O)c(O)c1` ; its solubility (mole fraction) = 0.0425

----------
conditionDetails: in isopropanol, 323.15 K
assayEndpoint: solubility (mole fraction)
Lab note: record just the number, no unit beside it.

# molecule `COC(=O)c1cc(O)c(O)c(O)c1` ; its solubility (mole fraction) = 0.0902

----------
conditionDetails: in n-butanol, 308.15 K
assayEndpoint: solubility (mole fraction)
Lab note: record just the number, no unit beside it.

# compound `COC(=O)c1cc(O)c(O)c(O)c1` ; its solubility (mole fraction) = 0.0499

----------
conditionDetails: in isobutanol, 308.15 K
assayEndpoint: solubility (mole fraction)
Lab note: record just the number, no unit beside it.

# compound `COC(=O)c1cc(O)c(O)c(O)c1` ; its solubility (mole fraction) = 0.0306

----------
conditionDetails: in isopropanol, 318.15 K
assayEndpoint: solubility (mole fraction)
Lab note: record just the number, no unit beside it.

# compound `COC(=O)c1cc(O)c(O)c(O)c1` ; its solubility (mole fraction) = 0.0819

----------
conditionDetails: in ethyl acetate, 313.15 K
assayEndpoint: solubility (mole fraction)
Lab note: record just the number, no unit beside it.

# compound `COC(=O)c1cc(O)c(O)c(O)c1` ; its solubility (mole fraction) = 0.0372
